These measurements were taken from patent US20260242478A1.

molecular target: T1, PSMA Fab (biotinylated (site not stated)); assay: clonal phage ELISA on biotinylated PSMA Fab captured on neutravidin plates, blocking buffer alone; anti-M13 HRP detection
T1 construct: Biotinylated PSMA Fab captured on neutravidin coated plates in the phage ELISA; also called Anti-PSMA Fab; 006 PSMA Fab
Where no end group is shown, it is not given here.
I'd be grateful if you could share measured phage binding ELISA signal for these entries.
Numbers only.

Solved entries (count: 2):
BINDER	phage binding ELISA signal
MEAMCRPAWMCAGF (cysteine pairing not given here; also: fused to pIII of bacteriophage) [Phage-3330]	1.84
PELWCVPSWMCEGF [Phage-3332]	1.84

Reported phage binding ELISA signal for VNELCIPSWMCNGF [Phage-3331] was 1.84
